Cited source: patent US12590122B2

target: NRP-1 (Homo sapiens); assay: NRP-1 binding assay: inhibition of (bt)-VEGF-A165 binding to immobilized NRP-1, chemiluminescent detection; conditions: parent tetrapeptide without N-terminal Cys; VEGF-A165/NRP-1 binding; read-out: IC50 [μM] without Cys
Sequence (O14786 22-923): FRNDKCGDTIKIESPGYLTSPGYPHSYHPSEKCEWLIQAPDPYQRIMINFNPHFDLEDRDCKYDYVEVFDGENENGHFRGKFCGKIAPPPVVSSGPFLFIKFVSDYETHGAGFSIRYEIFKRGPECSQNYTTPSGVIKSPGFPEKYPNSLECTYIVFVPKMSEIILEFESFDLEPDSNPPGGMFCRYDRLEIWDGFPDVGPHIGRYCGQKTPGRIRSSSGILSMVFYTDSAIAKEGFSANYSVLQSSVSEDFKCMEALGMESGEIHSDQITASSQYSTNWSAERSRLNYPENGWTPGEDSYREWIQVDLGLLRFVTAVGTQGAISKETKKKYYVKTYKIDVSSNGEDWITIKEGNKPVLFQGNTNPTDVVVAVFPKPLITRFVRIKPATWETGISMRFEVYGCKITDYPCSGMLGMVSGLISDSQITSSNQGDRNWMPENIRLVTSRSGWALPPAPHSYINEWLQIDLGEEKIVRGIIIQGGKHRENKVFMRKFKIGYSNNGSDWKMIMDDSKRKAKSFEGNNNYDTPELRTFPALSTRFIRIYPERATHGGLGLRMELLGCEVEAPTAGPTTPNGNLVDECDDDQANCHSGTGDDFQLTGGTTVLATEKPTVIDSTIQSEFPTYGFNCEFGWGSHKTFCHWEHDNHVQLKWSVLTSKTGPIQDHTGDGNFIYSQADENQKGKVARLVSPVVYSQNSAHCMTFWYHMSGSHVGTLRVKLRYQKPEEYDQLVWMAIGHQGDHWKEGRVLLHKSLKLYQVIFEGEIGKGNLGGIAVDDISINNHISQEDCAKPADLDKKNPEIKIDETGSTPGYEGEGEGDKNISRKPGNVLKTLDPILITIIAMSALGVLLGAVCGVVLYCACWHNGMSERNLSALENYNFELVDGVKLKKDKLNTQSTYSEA
Where a SMILES comes first, the peptide text is derived from it.
Measure Name: IC50

Noted for C[C@@H](O)[C@H](N)C(=O)N[C@@H](CCCCN)C(=O)N1CCC[C@H]1C(=O)N[C@@H](CCCNC(=N)N)C(=O)O [TKPR] (H-TKPR-OH; N-terminus and C-terminus assumed) : its IC50 reads > 100 µM
